System: HCT-116 colon
Test: NCI tumour cell line growth inhibition, 48 h
endpoint_label: TGI

HCT-116 colon assay, molecule O=Cc1ccc(-c2ccc(-c3nc4ccccc4o3)cc2)s1 , recorded TGI = 42.6 µM

HCT-116 colon assay, molecule O=C(O)CS , recorded TGI = > 100 µM

# next molecule below
HCT-116 colon assay, molecule Cc1nccc2c3ccc(OCc4cn(-c5ccc(Cl)cc5)nn4)cc3n(CCCc3ccccc3)c12 , recorded TGI = > 33.3 µM

====

System: DU-145 prostate
Test: NCI tumour cell line growth inhibition, 48 h
endpoint_label: TGI

DU-145 prostate assay, compound Cc1cc(O)c(C2=NN(c3ccc(S(N)(=O)=O)cc3)C(c3ccc(N(C)C)cc3)C2)c(C)c1Cl (stereo unspecified) , recorded TGI = 38.4 µM

New cases:
DU-145 prostate assay, compound CS(=O)(=O)CCNCc1ccc(-c2ccc3ncnc(Nc4ccc(OCc5cccc(F)c5)c(C(F)(F)F)c4)c3c2)o1 , recorded TGI = 8.07 µM

DU-145 prostate assay, compound Nc1ccccc1NC(=O)c1ccc(CCCC(=O)Nc2ccc(C3CC3N)cc2)cc1 (stereo unspecified) , recorded TGI = 18.5 µM

====

Test system: OVCAR-5 ovarian
Experiment: NCI tumour cell line growth inhibition, 48 h
endpoint_label: GI50

Use the examples below as a reference point.
OVCAR-5 ovarian assay, compound Nc1ccccc1NC(=O)c1ccc(CCCC(=O)Nc2ccc(C3CC3N)cc2)cc1 (stereo not given) , recorded GI50 = 0.925 µM

OVCAR-5 ovarian assay, compound CC(=O)N1c2ccccc2NC2=C(C(=O)N(Cc3ccccc3)C2(C)C)C1c1ccco1 (stereo not given) , recorded GI50 = 0.44 µM

OVCAR-5 ovarian assay, compound S=C(Nc1ccc(Cl)cc1)Nc1ccc(-c2nc3ccccc3o2)cc1 , recorded GI50 = 20.4 µM

New cases:
OVCAR-5 ovarian assay, compound COC(=O)c1c(O)c([N+](=O)[O-])cc2c1c1c(n2Cc2ccccc2)C(=O)c2ccccc2C1=O , recorded GI50 = 28.6 µM

OVCAR-5 ovarian assay, compound CC#C/C(=N\OC[C@H]1COCCN1)c1ccc2ncnc(Nc3ccc(OCc4cccc(F)c4)c(Cl)c3)c2c1 , recorded GI50 = 1.65 µM

OVCAR-5 ovarian assay, compound COc1cc(Nc2ncc(F)c(Nc3ccc4c(n3)NC(=O)C(C)(C)O4)n2)cc(OC)c1OC , recorded GI50 = 3.85 µM

OVCAR-5 ovarian assay, compound Cc1nc([C@H]2CC[C@H]3[C@@H]4CCC5=CC(=O)CC[C@]5(C)[C@H]4CC[C@]23C)cs1 , recorded GI50 = > 100 µM

OVCAR-5 ovarian assay, compound Cc1cc(O)c(C2=NN(c3ccc(S(N)(=O)=O)cc3)C(c3ccc(N(C)C)cc3)C2)c(C)c1Cl (stereo not given) , recorded GI50 = 19.4 µM

OVCAR-5 ovarian assay, compound CS(=O)(=O)Nc1cccc(-c2cc(-c3ccccc3Cl)c(C#N)c(N)n2)c1 , recorded GI50 = 3.22 µM

OVCAR-5 ovarian assay, compound O=C(O)CCC/C=C\C[C@H]1C=CC(=O)/C1=C/C[C@@H](O)CCc1cccc(C(F)(F)F)c1 , recorded GI50 = 4.15 µM

====

Tested on: CCRF-CEM leukemia
Experiment: NCI tumour cell line growth inhibition, 48 h; in the data active = GI50 below about 0.43 µM; inactive = the rest
Returns: one label drawn from label 1 for active, label 0 for inactive

Example entries begin here.
Exercise: Recorded test call requested for COC1=CC(=O)C(OC)=C(OC)C1=O
Key: label 0

Exercise: Recorded test call requested for Fc1ccc(-c2ncn(C3CCNCC3)c2-c2ccnc(Oc3ccc(F)c(F)c3)n2)cc1
Key: label 0

Exercise: Recorded test call requested for COC(=O)Nc1nc2ccc(C(=O)c3ccc(N(C)C4COC4)cc3)cc2[nH]1
Key: label 1

Exercise: Recorded test call requested for N=C(N)c1ccc(-c2ccc(-c3ccccc3)s2)cc1
Key: label 0

New cases:
Exercise: Recorded test call requested for Cc1nccc2c3ccc(OCc4cn(-c5ccc(Cl)cc5)nn4)cc3n(CCCc3ccccc3)c12
Key: label 0
